Target: Ba/F3 cells, ABL1 WT (Homo sapiens, UniProt P00519)
Sequence (P00519 whole entry, change not shown): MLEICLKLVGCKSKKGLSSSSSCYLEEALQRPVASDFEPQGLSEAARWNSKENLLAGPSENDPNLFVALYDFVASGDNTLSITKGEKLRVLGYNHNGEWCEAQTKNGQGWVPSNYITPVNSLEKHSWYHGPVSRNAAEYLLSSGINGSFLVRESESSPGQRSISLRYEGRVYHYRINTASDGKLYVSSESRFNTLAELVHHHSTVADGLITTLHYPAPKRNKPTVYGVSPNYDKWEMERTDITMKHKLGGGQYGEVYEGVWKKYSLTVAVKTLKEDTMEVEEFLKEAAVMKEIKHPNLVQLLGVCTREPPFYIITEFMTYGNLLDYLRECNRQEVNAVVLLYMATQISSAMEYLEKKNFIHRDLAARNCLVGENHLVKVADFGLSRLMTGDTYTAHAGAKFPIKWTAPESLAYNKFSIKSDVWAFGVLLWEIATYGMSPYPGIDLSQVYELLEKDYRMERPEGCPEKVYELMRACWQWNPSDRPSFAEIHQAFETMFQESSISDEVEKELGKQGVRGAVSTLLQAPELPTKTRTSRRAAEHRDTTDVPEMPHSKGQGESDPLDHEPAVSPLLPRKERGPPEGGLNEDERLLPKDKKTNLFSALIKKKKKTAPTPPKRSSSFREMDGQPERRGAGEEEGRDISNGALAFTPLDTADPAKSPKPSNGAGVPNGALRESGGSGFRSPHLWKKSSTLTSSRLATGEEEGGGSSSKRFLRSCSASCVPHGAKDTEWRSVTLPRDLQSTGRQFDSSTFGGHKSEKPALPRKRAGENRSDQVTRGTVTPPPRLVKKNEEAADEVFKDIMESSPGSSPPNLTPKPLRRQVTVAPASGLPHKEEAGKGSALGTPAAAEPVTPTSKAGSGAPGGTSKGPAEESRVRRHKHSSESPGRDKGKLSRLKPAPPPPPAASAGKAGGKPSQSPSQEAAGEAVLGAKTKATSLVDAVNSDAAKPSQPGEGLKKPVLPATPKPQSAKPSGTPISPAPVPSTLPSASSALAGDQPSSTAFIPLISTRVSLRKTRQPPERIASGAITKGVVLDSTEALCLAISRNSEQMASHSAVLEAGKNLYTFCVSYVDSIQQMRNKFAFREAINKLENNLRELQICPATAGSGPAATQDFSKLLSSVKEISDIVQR
Assay: 96-well XTT cell survival assay, Ba/F3 ABL1 WT
Assay type: cell-based
Conditions: 72 hours, read-out: ABL1 WT XTT [Ba/F3] IC50
Quick reference for GI50 among some molecules
result.type: GI50

| molecule | meas.value |
| --- | --- |
| COc1ccccc1-c1c[nH]c2ncc(-c3cncc(C(=O)C(=O)N(C)C)c3)cc12 | < 1000 nM |
| COc1ccccc1-c1c[nH]c2ncc(-c3cncc(C(O)C(=O)N(C)Cc4ccncc4)c3)cc12 (centres unmarked) | > 1000 nM |
| COc1ccc(F)cc1-c1c[nH]c2ncc(-c3cncc(C(O)C(=O)N(C)C)c3)cc12 (centres unmarked) | < 1000 nM |
| COc1ccccc1-c1c[nH]c2ncc(-c3cccc(C(O)C(=O)N(C)CC4CCOCC4)c3)cc12 (centres unmarked) | < 1000 nM |
| COc1ccccc1-c1n[nH]c2ncc(-c3cccc(C(C)C(=O)N4CCC(O)CC4)c3)cc12 (centres unmarked) | < 1000 nM |

----------
Target: Ba/F3 cells, ABL1 WT (Homo sapiens, UniProt P00519)
Assay: 96-well XTT cell survival assay, Ba/F3 ABL1 WT
Type: cell-based
Settings: 72 hours, read-out: ABL1 WT XTT [Ba/F3] IC50
result.type: GI50

| compound | result.type | meas.value |
| --- | --- | --- |
| COc1ccccc1-c1c[nH]c2ncc(-c3cccc(C(O)C(=O)N(C)C[C@@H](O)CO)c3)cc12 (some centres unmarked) | GI50 | < 1000 nM |
| COc1ccccc1-c1n[nH]c2ncc(-c3cccc(CO)c3)cc12 | GI50 | < 1000 nM |
| CCN(C)C(=O)C(O)c1cncc(-c2cnc3[nH]cc(-c4ccccc4OC)c3c2)c1 (centres unmarked) | GI50 | < 1000 nM |
| COc1ccccc1-c1n[nH]c2ncc(-c3cccc(C(O)C(=O)N(C)C)c3)cc12 (centres unmarked) | GI50 | < 1000 nM |
| CNC(C(=O)N1CCC(N(C)C)C1)c1cccc(-c2cnc3[nH]nc(-c4ccccc4OC)c3c2)c1 (centres unmarked) | GI50 | > 1000 nM |

----------
Biological target: Ba/F3 cells, ABL1 WT (Homo sapiens, UniProt P00519)
Assay: 96-well XTT cell survival assay, Ba/F3 ABL1 WT
Type: cell-based
Conditions: 72 hours, read-out: ABL1 WT XTT [Ba/F3] IC50
result.type: GI50

| molecule | meas.value |
| --- | --- |
| COc1ccccc1-c1c[nH]c2ncc(-c3cccc(C4(C)NC(=O)NC4=O)c3)cc12 (centres unmarked) | < 1 µM |
| COc1ccccc1-c1n[nH]c2ncc(-c3cccc(C(C)(O)C(=O)N4CC(O)C4)c3)cc12 (centres unmarked) | > 1 µM |
| COc1ccccc1-c1c[nH]c2ncc(-c3cncc([C@@H](O)C(=O)N(C)C)c3)cc12 | < 1 µM |
| CNC(=O)C(O)c1cccc(-c2cnc3[nH]nc(-c4ccccc4OC)c3c2)c1 (centres unmarked) | < 1 µM |
| CSc1ccccc1-c1c[nH]c2ncc(-c3cncc(C(O)C(=O)N(C)C)c3)cc12 (centres unmarked) | < 1 µM |

----------
Target: unphosphorylated T315I Abl kinase domain (Mus musculus, UniProt P00520, T315I)
Construct: purified and unphosphorylated T315I Abl kinase domain
Sequence (P00520 242-493 T315I limits assumed): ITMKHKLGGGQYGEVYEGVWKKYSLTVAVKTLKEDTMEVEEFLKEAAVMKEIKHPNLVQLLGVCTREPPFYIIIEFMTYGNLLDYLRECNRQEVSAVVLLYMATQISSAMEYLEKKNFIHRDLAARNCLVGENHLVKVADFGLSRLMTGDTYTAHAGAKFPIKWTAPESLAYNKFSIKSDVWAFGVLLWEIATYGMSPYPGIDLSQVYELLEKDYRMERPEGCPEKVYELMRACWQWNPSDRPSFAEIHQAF
Assay: c-Abl T315I 0P bioassay (pyruvate kinase/lactate dehydrogenase coupled enzyme assay)
Settings: zero phosphorylation state (0P), 10 μM ATP, read-out: AbI T315I 0P IC50
result.type: IC50

| compound | meas.value |
| --- | --- |
| COc1ccccc1-c1n[nH]c2ncc(-c3cccc(C(C)C(=O)N4CCC(O)CC4)c3)cc12 (centres unmarked) | < 0.05 µM |
| COc1ccccc1-c1c[nH]c2ncc(-c3cccc(C(O)C(=O)N(C)CC4CCOCC4)c3)cc12 (centres unmarked) | < 0.05 µM |
| COc1ccccc1-c1n[nH]c2ncc(-c3cccc(C(O)C(=O)N(C)CC#N)c3)cc12 (centres unmarked) | < 0.05 µM |
| CN(C)C(=O)C(O)c1cncc(-c2cnc3[nH]cc(-c4ccc(C(N)=O)cc4)c3c2)c1 (centres unmarked) | < 0.05 µM |
| COc1ccccc1-c1c[nH]c2ncc(-c3cncc(C(O)C(=O)N(C)C)n3)cc12 (centres unmarked) | > 0.5 µM |
